Readings of TGI for the listed compounds
tested on: SN12C renal; assay: NCI tumour cell line growth inhibition, 48 h
Give a bare numeral; the unit µM is implied.

Request: TGI, test system SN12C renal, entry Cc1cc(N(CCC#N)S(=O)(=O)c2ccccc2)ccc1C=Nc1ccc(C(=O)O)cc1
16.8

Request: TGI, test system SN12C renal, entry COC(=O)CC[C@@H](C)[C@H]1CC[C@H]2[C@@H]3CC[C@@H]4C[C@H](O)CC[C@]4(C)[C@H]3CC[C@]12C
33.2

Request: TGI, test system SN12C renal, entry C=CCc1c(O)c(C(=O)/C=C/c2ccc(Cl)cc2)c(OC)c2ccoc12
16.9

Request: TGI, test system SN12C renal, entry CCO/C=C\C12CCCC1NC(c1ccccc1)(c1ccccc1)O2 (stereo unspecified)
78.3

Request: TGI, test system SN12C renal, entry CCC(=O)OCOc1ccc(/C=C2\CCC(CN(C)C)C2=O)cc1 (stereo unspecified)
7.56

* * *

tested on: CAKI-1 renal; experiment: NCI tumour cell line growth inhibition, 48 h
parameter_measured: TGI

O=C(CCCCCNC(=O)c1ccc(Cl)cc1)NO; 21.1 µM
COC1(OC)CC(CO)(COc2cc(Cl)nc(N)n2)C1; > 100 µM
Oc1c(C(Nc2ccccn2)c2ccccc2)ccc2cccnc12 (stereo not drawn); > 87.4 µM

Name the recorded TGI for O=[N+]([O-])c1c(O)c2nonc2c2nn(-c3ccccc3)nc12 .
> 100 µM

Name the recorded TGI for COC(=O)C1=C(C)NC(C)=C(C(=O)OC)C1c1cccc(/[N+]([O-])=C/c2ccccc2)c1 .
32.3 µM

Name the recorded TGI for CC1C(c2ccccc2)N(C)C(c2ccccc2)C(C)C1(O)c1ccccc1 (stereo not drawn) .
> 100 µM

Name the recorded TGI for C1=CC2C(C3CN(c4ccccc4)N=C13)C1C3C4C=CC21C=CC43 (stereo not drawn) .
> 100 µM

Name the recorded TGI for N#Cc1sc2c(c1OC(=O)c1ccco1)c(=O)n(-c1ccccc1)c(=S)n2-c1ccccc1 .
> 100 µM

Name the recorded TGI for CCOC(=O)c1ccc2nc3n(c2c1)C(c1c(F)cccc1F)SC3 (stereo not drawn) .
> 100 µM

Name the recorded TGI for Clc1nc2nc(N3CCNCC3)nc(N3CCCC3)c2[nH]1 .
> 100 µM

Name the recorded TGI for C=C1c2c(n(S(=O)(=O)c3ccccc3)c3ccccc23)[C@@]2(C(=O)OC)CC3C=CC2N1C3 .
> 100 µM

Name the recorded TGI for CC(C)[C@@H](C(=O)O[C@@H]1/C=C/C(=O)O[C@@H](C)CCC/C=C/[C@@H]2C[C@H](O)C[C@H]21)N(C)C .
42.8 µM

Name the recorded TGI for C=CC(=O)N1C/C(=C\c2ccc(OC)cc2)C(=O)/C(=C/c2ccc(OC)cc2)C1 .
11.7 µM

* * *

Readings of TGI for the listed compounds
test system: 786-0 renal; assay: NCI tumour cell line growth inhibition, 48 h

Would you please look over these solved cases?
CC1CN(c2cc3c(cc2F)c(=O)c(C(=O)O)cn3-c2ccc(N3CCN(C)CC3)cn2)CC(C)N1 (stereo not drawn); > 100 µM
O=S(=O)(O)c1ccc(O)c(N=Nc2c(O)ccc3ccccc23)c1; > 100 µM

Proceed to the following item.
Name the recorded TGI for COc1cc(C2c3cccc4cccc(c34)C3CCC(=O)N32)cc(OC)c1O (stereo not drawn) .
> 50 µM
